Test: Drug distribution in SCID mouse liver at 3 mg/kg, po measured at 6 hrs by LC-MS/MS analysis
Type: ADME, organism-based
Settings: read-out: Ct
PARAMETER_MEASURED: concentration at 6 h

Field concentration at 6 h (entry CC(=O)N1CCc2c(c(N3CCCc4cc(-c5cnn(C)c5)c(C(F)F)cc43)nn2[C@H]2CC[C@H](CN3Cc4cc5c(cc4C3)C(=O)N(C3CCC(=O)NC3=O)C5=O)CC2)C1 (stereo partly specified) ) reads 1750 ng/mL

====

Test: Drug distribution in SCID mouse spleen at 3 mg/kg, po measured at 24 hrs by LC-MS/MS analysis
Type: ADME, organism-based
Conditions: read-out: Ct
PARAMETER_MEASURED: concentration at 24 h (ng/mL)
The answer is to be given in ng/mL; state only the numeric part.

Field concentration at 24 h (entry CC(=O)N1CCc2c(c(N3CCCc4cc(-c5cnn(C)c5)c(C(F)F)cc43)nn2[C@H]2CC[C@H](CN3Cc4cc5c(cc4C3)C(=O)N(C3CCC(=O)NC3=O)C5=O)CC2)C1 (stereo partly specified) ) reads 21.2
